Target: Huntingtin (Homo sapiens) (UniProt P42858)
Sequence (P42858 whole entry, looked up, change not shown): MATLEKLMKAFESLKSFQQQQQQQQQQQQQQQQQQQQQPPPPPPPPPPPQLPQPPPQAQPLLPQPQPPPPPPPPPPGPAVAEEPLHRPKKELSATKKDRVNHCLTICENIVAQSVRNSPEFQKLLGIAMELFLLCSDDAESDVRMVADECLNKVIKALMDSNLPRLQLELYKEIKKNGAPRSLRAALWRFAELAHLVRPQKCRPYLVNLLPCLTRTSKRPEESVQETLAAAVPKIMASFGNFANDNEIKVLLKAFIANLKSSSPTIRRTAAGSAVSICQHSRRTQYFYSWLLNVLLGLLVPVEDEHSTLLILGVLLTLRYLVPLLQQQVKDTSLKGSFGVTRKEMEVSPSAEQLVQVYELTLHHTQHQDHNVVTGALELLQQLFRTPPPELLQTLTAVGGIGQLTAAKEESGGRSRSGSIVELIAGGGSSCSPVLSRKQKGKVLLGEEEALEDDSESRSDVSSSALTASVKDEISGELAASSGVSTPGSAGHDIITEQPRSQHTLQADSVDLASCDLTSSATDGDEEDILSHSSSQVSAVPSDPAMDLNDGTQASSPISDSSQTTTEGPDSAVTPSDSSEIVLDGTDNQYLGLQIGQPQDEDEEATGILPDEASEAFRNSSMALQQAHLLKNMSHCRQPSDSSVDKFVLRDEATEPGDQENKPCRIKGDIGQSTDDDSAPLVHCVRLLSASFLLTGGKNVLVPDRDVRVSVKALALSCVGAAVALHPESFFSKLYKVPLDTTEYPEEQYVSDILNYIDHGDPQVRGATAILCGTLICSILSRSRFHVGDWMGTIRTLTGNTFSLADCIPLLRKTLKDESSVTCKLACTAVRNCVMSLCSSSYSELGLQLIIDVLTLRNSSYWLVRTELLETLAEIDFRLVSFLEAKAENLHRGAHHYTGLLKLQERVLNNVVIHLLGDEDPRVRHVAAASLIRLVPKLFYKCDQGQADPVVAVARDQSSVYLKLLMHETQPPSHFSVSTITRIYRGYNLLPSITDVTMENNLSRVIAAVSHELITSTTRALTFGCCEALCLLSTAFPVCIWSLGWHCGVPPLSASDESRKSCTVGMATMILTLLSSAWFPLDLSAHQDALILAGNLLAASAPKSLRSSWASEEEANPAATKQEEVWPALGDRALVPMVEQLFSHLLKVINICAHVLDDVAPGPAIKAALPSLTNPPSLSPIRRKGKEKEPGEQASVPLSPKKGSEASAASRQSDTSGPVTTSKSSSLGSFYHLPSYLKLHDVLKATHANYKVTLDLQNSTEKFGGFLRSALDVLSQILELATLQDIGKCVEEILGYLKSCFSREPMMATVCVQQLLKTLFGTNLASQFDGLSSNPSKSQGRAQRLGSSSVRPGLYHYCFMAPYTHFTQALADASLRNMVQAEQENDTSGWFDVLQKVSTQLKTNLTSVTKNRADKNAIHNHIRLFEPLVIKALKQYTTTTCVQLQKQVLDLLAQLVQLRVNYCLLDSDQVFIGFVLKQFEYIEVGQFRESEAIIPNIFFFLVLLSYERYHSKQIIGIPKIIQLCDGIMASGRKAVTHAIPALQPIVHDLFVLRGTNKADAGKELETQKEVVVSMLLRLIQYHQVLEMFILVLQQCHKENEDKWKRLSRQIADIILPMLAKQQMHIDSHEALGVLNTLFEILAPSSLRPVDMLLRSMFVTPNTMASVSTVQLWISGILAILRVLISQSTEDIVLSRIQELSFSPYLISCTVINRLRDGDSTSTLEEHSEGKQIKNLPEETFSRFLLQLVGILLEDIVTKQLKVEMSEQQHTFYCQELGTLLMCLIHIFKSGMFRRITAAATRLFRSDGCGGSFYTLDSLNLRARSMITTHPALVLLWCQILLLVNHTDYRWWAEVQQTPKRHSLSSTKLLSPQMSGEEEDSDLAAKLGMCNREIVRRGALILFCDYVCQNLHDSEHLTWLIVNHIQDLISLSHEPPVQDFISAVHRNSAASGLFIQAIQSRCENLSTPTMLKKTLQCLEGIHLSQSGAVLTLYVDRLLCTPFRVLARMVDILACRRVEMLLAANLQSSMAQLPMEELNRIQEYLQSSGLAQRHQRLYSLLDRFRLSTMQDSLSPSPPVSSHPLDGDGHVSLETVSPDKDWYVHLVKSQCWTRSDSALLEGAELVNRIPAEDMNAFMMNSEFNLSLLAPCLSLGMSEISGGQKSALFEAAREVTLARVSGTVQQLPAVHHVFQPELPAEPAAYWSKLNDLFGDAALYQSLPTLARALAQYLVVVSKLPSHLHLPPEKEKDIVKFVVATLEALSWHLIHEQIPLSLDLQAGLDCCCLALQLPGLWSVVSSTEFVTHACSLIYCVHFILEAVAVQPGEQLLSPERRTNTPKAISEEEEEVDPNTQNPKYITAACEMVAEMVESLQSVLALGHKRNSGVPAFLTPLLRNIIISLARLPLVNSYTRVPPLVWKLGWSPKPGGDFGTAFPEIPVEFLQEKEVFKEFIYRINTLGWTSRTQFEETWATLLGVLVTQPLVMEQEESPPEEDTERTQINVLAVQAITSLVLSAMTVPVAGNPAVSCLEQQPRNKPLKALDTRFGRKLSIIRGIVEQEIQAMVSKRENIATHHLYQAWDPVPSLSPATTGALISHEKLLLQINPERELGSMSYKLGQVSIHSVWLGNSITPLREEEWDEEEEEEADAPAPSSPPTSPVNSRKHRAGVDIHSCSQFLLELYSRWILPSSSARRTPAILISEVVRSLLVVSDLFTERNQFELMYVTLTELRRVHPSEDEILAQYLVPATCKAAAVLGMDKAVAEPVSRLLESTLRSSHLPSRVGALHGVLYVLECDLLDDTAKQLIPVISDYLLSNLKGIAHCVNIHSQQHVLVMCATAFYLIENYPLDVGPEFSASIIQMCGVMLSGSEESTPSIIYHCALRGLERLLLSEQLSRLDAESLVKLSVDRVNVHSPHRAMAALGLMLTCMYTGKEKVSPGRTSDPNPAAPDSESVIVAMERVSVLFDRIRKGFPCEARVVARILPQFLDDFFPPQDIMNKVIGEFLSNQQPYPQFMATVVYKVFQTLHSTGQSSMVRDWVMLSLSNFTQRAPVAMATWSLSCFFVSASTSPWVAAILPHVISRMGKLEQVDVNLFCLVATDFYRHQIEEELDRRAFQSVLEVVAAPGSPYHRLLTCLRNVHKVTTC
Experiment: mutant huntingtin-calmodulin interaction inhibitors – biochemical, AlphaScreen, primary screen (AID 1671202)
Conditions: AlphaScreen His-mHTT/GST-CaM binding, luminescence; at 15 µM
In all, about 190,000 compounds went through this assay and about 6,900 (3.6%) were called active. No stated cut-off is given here; in the data, active means inhibition above about 50%; inactive means the rest. This excerpt belongs to a sample that is enriched for actives.
Labels: active, inactive

- Compound: "Cc1csc(NC(=O)c2cccn(Cc3cccc([N+](=O)[O-])c3)c2=O)n1"
  Category: "inactive"
- Compound: "O=[N+]([O-])c1ccc(NCCNc2ccc([N+](=O)[O-])c3cccnc23)cc1"
  Category: "inactive"
- Compound: "O=C(Cc1c[nH]c2ccccc12)N1CCCN(C2CCN(Cc3ccc(F)cc3)C2=O)CC1 (stereo unspecified)"
  Category: "inactive"
- Compound: "Nc1ccc(-c2ccc(N)c(N)c2)cc1N"
  Category: "active"
- Compound: "CC(C)(CNc1ccc([N+](=O)[O-])c2cccnc12)CNS(=O)(=O)c1ccc(Cl)cc1"
  Category: "active"
- Compound: "CCN(CC)CC#CCOc1ccccc1"
  Category: "inactive"
- Compound: "CC(C)CCn1c(=O)c(C(=O)Nc2ccccn2)c(O)c2ccccc21"
  Category: "inactive"
- Compound: "COC(=O)c1ccc2[se]c(CC3CCCCC3)c(I)c2c1"
  Category: "inactive"
- Compound: "O=c1cccc2n1CC1CC2CN(Cc2cc(Cl)ccc2O)C1 (stereo unspecified)"
  Category: "inactive"
- Compound: "CC(C)c1cc(=O)n2c(n1)SCC2CC(=O)N1CC2CC(C1)c1cccc(=O)n1C2 (stereo unspecified)"
  Category: "inactive"
- Compound: "CCOC(=O)c1ccc(NC(=O)c2cccn(Cc3ccc(C(F)(F)F)cc3)c2=O)cc1"
  Category: "active"
- Compound: "O=[N+]([O-])c1cccc(C(Cl)Cl)c1"
  Category: "inactive"
- Compound: "CCCn1c(=O)cc(C)c2ccc(OCC(=O)N3CCN(C)CC3)cc21"
  Category: "inactive"
- Compound: "COc1ccc(CCC(=O)N2CCC3(C2)C(=O)N(C)c2ccc(OC)cc23)cc1 (stereo unspecified)"
  Category: "inactive"
- Compound: "CC(=O)c1ccc(OC(NC(=O)Cc2ccccc2)C(Cl)(Cl)Cl)cc1 (stereo unspecified)"
  Category: "active"
- Compound: "CN1CCN(c2nnc(C(F)(F)F)s2)CC1"
  Category: "inactive"
